Values compiled from the supplement of paper PMC9170038.

Tested on: MS2 coat protein
Experiment: apparent KD of MS2 coat protein; designed switch direction (-1 OFF switch, 1 ON switch): -1; higher = weaker reporter binding
Conditions: Eterna round: R95; input ligand: FMN 200 uM
Kind request: treat 200 nM as inclusive, so apparent KD of MS2 coat protein at 200 nM or higher is TRUE, anything lower is FALSE.

Example results:
Does the sequence GGAUCGAGUGUGAGGAUAUGCUGGUCCUUGGAUCAGCAGAAGGCACAUGAGGAUCACCCAUGUGAAGACGGUCC [JL bmx4 3.16] (puzzle: Brourd's mod of Exclusion 4) have recorded apparent KD of MS2 coat protein that is 200 nM or more?
TRUE

Does the sequence AGUAACCGUCACGAAAGUGAUGGUUACACAAGUAAAUGUACAUGAGGAUCACCCAUGUCCUCAUUUGCUCGUCUUAU [Sensor 3 - 46] (puzzle: Sensor v3, turn-off variant 2) have recorded apparent KD of MS2 coat protein that is 200 nM or more?
FALSE

Does the sequence AGUACUAACACGAAAGUGUUAGUACAAUAAGCUUGUGUUACAUGAGGAUCACCCAUGUCCUCAUAAGCUCGUCUUAU [JL-sv3-2.14 mat747 mod] (puzzle: Sensor v3, turn-off variant 2) have recorded apparent KD of MS2 coat protein that is 200 nM or more?
FALSE

Does the sequence GGAAAGGUAGGAUAUACGAAGAAAAAGGGUAGAAUAAUAACACAUGAGGAUCACCCAUGUAGAAGGACCAAAGC [Mat - Exclusion 2 - Mod of my Tesla design - D13] (puzzle: Exclusion 2) have recorded apparent KD of MS2 coat protein that is 200 nM or more?
FALSE

Continuing:
Does the sequence GGUUGGCGAGGAUAUACAUGAGGAUCACCCAUGUGAGAGAAAAAAGUGAGGAAGCAAAGUAGAAGGCGCUGACG [salish99_ex3_r3_034] (puzzle: Exclusion 3) have recorded apparent KD of MS2 coat protein that is 200 nM or more?
FALSE

----------
Test system: MS2 coat protein
Experiment: apparent KD of MS2 coat protein, switch OFF state (with FMN for OFF switches, without FMN for ON switches); designed switch direction (-1 OFF switch, 1 ON switch): 1; higher = weaker reporter binding
Settings: FMN input: 0 or 200 uM; Eterna round: R93 (includes R88 designs)
Kind request: treat 30 nM as inclusive, so apparent KD of MS2 coat protein at 30 nM or higher is fulfilled, anything lower is not fulfilled.

Example results:
Does the sequence GGCCAACAUGAGGAUCACCCAUGUCGCCAAAAUCGAGGAUAUGGGUGCCAGCUCGGGCAGCCAGAAGGCGACAAAA [Qutiqumais] have recorded apparent KD of MS2 coat protein that is 30 nM or more?
fulfilled

Does the sequence GAAAAACAUGAGGAUCACCCAUGUGUAAAUAUGGAAGGAUAUACAAAGACGUAAGUCAAAGUAGAAGGUCUAAAAG [Mat - Same State 1 - Eli mod - D17] have recorded apparent KD of MS2 coat protein that is 30 nM or more?
not fulfilled

Does the sequence AAGAAACAUGAGGAUCACCCAUGUAAGAUAAACACAGGAUAUGCGAAAGAAAUAAAGAAAGCAGAAGGGUGAAGAA [Mat - Same State 1 - Tesla mod - D147] have recorded apparent KD of MS2 coat protein that is 30 nM or more?
not fulfilled

Does the sequence AUAAAAGAAGCGAAGGAUAUCCAAAACUCAACAUGAGGAUCACCCAUGUAAAGAAAGAAAAAAUGGGAGAAGGUCGCAAAGAAUA [73%, More Fisker Same State 2, D3, 10] have recorded apparent KD of MS2 coat protein that is 30 nM or more?
not fulfilled

Continuing:
Does the sequence GGUACAUCUAGUUAGGAUAUCAGGUGUAAGACAUGAGGAUCACCCAUGUCCUAAGAACAGGUAACUGAGAAGGAACAGGGAGUCC [JR_SS002_Sub416] have recorded apparent KD of MS2 coat protein that is 30 nM or more?
fulfilled

----------
Tested on: MS2 coat protein
Experiment: apparent KD of MS2 coat protein; designed switch direction (-1 OFF switch, 1 ON switch): -1; higher = weaker reporter binding
Settings: Eterna round: R95; input ligand: microRNA oligo, concentration not stated
Form field: apparent KD of MS2 coat protein (one value per entry).
Include the unit right after the number.

Requested read-out: apparent KD of MS2 coat protein. Entry: CUUUUGUGAGGAUAUCAGUAGUAAAAAUAUAAAAUUACUACUGAGAAGGCACAUGAGGAUCACCCAUGUUCCUC [salish99_ex4_r3_020] (puzzle: Exclusion 4)
37.2 nM

Requested read-out: apparent KD of MS2 coat protein. Entry: UGACGAGUAGGAUAUUGGACUUGCGACAUGAGGAUCACCCAUGUGACGUCAACGUGGCACCAAGAAGGGCUACGUC [Gelareusdi] (puzzle: Exclusion 5)
47.7 nM

Requested read-out: apparent KD of MS2 coat protein. Entry: ACGUUUUUUGAGGAUAUGCGACGUUUUUUCGUCGUAGAAGGCGAUACAUGAGGAUCACCCAUGUUUAUGGGCAU [LRO-Ex6-18] (puzzle: Exclusion 6)
129 nM

Requested read-out: apparent KD of MS2 coat protein. Entry: GAUUAUGCGAGCUUUAGGGACAUGAGGAUCACCCAUGUUCGUCUUAUUGGUCUGGAUGCACUAACAUACCUAAAUCU [JMF 28] (puzzle: Sensor v3, turn-off variant 1)
30.4 nM

Continuing:
Requested read-out: apparent KD of MS2 coat protein. Entry: AGGAGUGAAGGAUAUACAUGAGGAUCACCCAUGUGGGAGGAAAGAGGUGAUGGAGAUAGUAGAAGGUCAGGAUG [JR_Exclusion3_Sub005] (puzzle: Exclusion 3)
93.9 nM

Requested read-out: apparent KD of MS2 coat protein. Entry: AUUAUGUAAGGAUAUCUUACAUGUGACUUCGGUCACUGUCAAGAGAAGGUACAUGAGGAUCACCCAUGUAUGAC [Ex4-3: 49] (puzzle: Exclusion 4)
14.2 nM

Requested read-out: apparent KD of MS2 coat protein. Entry: UUUGUUGUUGUGAGGAUAUCGUUGAUUUUUUGAAACGAGAAGGCACAUGAGGAUCACCCAUGUUUGUUGUUGGU [JR_BMOE4_Sub058] (puzzle: Brourd's mod of Exclusion 4)
58.8 nM

Requested read-out: apparent KD of MS2 coat protein. Entry: UUCAUGUGAGGAUAUAGUACUCUUUCUAUUAUUAUUGAGUAUUAGAAGGCACAUGAGGAUCACCCAUGUAGUAC [Ex4 - 3 - 41] (puzzle: Exclusion 4)
28.1 nM

Requested read-out: apparent KD of MS2 coat protein. Entry: GGAAAGCAAGGAUAUACAAGGAGACGAUGGAAAGUAGAGCGACAUGAGGAUCACCCAUGUAGAAGGUGCGAGAG [JR_Exclu2_Sub038] (puzzle: Exclusion 2)
39.1 nM

Requested read-out: apparent KD of MS2 coat protein. Entry: GCUGAUGCAGGAUAUAUAUGAAGCGUUCGAAUAGAAUGCGAACAUGAGGAUCACCCAUGUAGAAGGGCAUUGGC [Omei Ex 2, 1A] (puzzle: Exclusion 2)
13.9 nM

Requested read-out: apparent KD of MS2 coat protein. Entry: AAUAACAGAGGAUAUACUAUUUUAUGUGUUUAUUGUUUUAAACAUGAGGAUCACCCAUGUAGAAGGCUGAAUGA [JMF 59] (puzzle: Exclusion 2)
34.4 nM

----------
Tested on: MS2 coat protein
Assay: apparent KD of MS2 coat protein; designed switch direction (-1 OFF switch, 1 ON switch): -1; higher = weaker reporter binding
Conditions: Eterna round: R95; input ligand: microRNA oligo, concentration not stated
Form field: apparent KD of MS2 coat protein (one value per entry).

The examples below pair each entry with its known result.
Request - read-out apparent KD of MS2 coat protein | tested on MS2 coat protein | sequence AAUAAUAAGGAGGAUAUCGUAUCGGAAACGAUACGAGAAGGCCUAACAUGAGGAUCACCCAUGUUCCUUAAAUA [Mat - Exclusion 6 - Eli Mod - D61] (puzzle: Exclusion 6)
0.0191 µM

Request - read-out apparent KD of MS2 coat protein | tested on MS2 coat protein | sequence GCCAGAGCAGGAUAUUCAAUAUGUCACAUGAGGAUCACCCAUGUCCAGCGAAAGCUGGAGGGAGAAGGGCUCUGGC [Fiskers Ex 5 - 18] (puzzle: Exclusion 5)
0.0893 µM

Continuing:
Request - read-out apparent KD of MS2 coat protein | tested on MS2 coat protein | sequence AAUACAAGCGAGAUCCUAAACAUGAGGAUCACCCAUGUGCUCGUCUUAUAAAGUACUAUCACGAAAGUGAUAGUACA [Sensor 3, v1 - 67] (puzzle: Sensor v3, turn-off variant 1)
0.157 µM

----------
Tested on: MS2 coat protein
Assay: apparent KD of MS2 coat protein; designed switch direction (-1 OFF switch, 1 ON switch): -1; higher = weaker reporter binding
Details: Eterna round: R95; input ligand: microRNA oligo, concentration not stated
Kind request: treat 0.04 µM as inclusive, so apparent KD of MS2 coat protein at 0.04 µM or higher is MET, anything lower is NOT MET.

Does the sequence AGUAACUAUCACGAAAGUGAUAGUUACACAAGCAGUGGAACAUGAGGAUCACCCAUGUCCUCAUUUGCUCGUCUUAU [Sensor 3 - 27] (puzzle: Sensor v3, turn-off variant 2) have recorded apparent KD of MS2 coat protein that is 0.04 µM or more?
NOT MET
